system-name: NET (Homo sapiens)
Sequence (P23975 whole entry): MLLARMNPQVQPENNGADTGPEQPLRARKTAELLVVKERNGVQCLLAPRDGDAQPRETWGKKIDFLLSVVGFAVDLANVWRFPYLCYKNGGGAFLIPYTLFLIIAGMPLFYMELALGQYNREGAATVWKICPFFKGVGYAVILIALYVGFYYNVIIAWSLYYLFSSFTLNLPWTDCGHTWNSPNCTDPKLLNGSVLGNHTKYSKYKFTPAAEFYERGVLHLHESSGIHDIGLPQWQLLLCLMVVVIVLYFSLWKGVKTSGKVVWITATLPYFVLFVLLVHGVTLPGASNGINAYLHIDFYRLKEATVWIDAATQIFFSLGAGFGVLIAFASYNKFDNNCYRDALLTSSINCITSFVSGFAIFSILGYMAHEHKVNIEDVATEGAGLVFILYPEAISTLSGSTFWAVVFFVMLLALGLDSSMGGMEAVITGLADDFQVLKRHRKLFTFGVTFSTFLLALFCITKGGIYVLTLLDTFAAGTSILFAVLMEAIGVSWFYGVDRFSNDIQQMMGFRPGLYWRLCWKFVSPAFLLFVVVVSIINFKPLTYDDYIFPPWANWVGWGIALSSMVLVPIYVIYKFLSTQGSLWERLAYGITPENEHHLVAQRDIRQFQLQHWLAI
assay-explanation: SAFETYScan Transporter, Blocker
condition: read-out: RC50 (IC50)
pIC50: −log10 of the molar value.

{"columns": ["compound", "pIC50"],
 "data": [
  ["C[C@H]1C[C@@H](O)CN(c2ncc(Cl)c(Nc3ccc4c(c3)c3c(c(=O)n4C)OCC(F)(F)[C@H](C4CC4)N3)n2)C1 [12a CCT373566]", "< 5.00"]
]}

----------
system-name: HRH1 (Homo sapiens)
Sequence (P35367 whole entry): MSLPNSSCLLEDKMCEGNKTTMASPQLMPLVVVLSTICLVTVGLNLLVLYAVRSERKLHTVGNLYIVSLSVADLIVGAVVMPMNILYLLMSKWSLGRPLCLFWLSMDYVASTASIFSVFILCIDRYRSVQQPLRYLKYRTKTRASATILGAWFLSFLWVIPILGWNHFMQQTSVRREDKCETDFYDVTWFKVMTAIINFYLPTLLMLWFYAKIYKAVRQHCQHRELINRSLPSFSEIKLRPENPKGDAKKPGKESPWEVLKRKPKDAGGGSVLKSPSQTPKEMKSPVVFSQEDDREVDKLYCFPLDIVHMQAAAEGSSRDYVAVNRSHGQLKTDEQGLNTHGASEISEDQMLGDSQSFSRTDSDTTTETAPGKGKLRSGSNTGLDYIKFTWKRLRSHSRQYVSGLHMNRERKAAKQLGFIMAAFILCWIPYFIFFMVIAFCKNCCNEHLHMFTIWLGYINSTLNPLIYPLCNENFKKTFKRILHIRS
assay-explanation: SAFETYScan GPCR Calcium Flux, Antagonist
Assay type: cell-based
condition: read-out: RC50 (IC50)
pIC50: −log10 of the molar value.
measured-metric: pIC50

{"columns": ["compound", "measured-metric", "observed-result"],
 "data": [
  ["C[C@H]1C[C@@H](O)CN(c2ncc(Cl)c(Nc3ccc4c(c3)c3c(c(=O)n4C)OCC(F)(F)[C@H](C4CC4)N3)n2)C1 [12a CCT373566]", "pIC50", "< 5.00"]
]}

----------
system-name: AVPR1A (Homo sapiens, UniProt P37288)
Sequence (P37288 whole entry): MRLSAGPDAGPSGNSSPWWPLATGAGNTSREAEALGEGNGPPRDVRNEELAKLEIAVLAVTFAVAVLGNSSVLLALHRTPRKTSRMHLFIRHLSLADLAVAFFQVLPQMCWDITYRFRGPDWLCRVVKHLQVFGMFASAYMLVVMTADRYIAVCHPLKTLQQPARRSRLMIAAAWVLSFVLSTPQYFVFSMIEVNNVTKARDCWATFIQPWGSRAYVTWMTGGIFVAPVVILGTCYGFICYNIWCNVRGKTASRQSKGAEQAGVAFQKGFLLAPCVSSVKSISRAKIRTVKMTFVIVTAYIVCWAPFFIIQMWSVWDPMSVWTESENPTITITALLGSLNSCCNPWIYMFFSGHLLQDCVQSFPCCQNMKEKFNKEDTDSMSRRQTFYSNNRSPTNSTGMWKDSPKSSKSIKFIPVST
assay-explanation: SAFETYScan GPCR Calcium Flux, Antagonist
condition: read-out: RC50 (IC50)

{"columns": ["compound", "IC50"],
 "data": [
  ["C[C@H]1C[C@@H](O)CN(c2ncc(Cl)c(Nc3ccc4c(c3)c3c(c(=O)n4C)OCC(F)(F)[C@H](C4CC4)N3)n2)C1 [12a CCT373566]", "> 10 µM"]
]}

----------
assay-explanation: NMR solubility assay
Assay type: physicochemical
condition: kinetic solubility by NMR in HEPES buffer at pH 8, 4% DMSO; read-out: Aq. Sol.

{"columns": ["compound", "solubility kinetic at 20 h (µM)"],
 "data": [
  ["C[C@H]1CCCN(c2ncc(Cl)c(Nc3ccc4c(c3)c3c(c(=O)n4C)OCC(F)(F)[C@H](C4CC4)N3)n2)C1 [15a]", 0],
  ["CC(=O)N[C@@H]1C[C@H](C)CN(c2ncc(Cl)c(Nc3ccc4c(c3)c3c(c(=O)n4C)OCC(F)(F)[C@H](C4CC4)N3)n2)C1 [10a]", 15],
  ["Cn1c(=O)c2c(c3cc(Nc4nc(N5CCC(F)(F)[C@@H](O)C5)ncc4Cl)ccc31)N[C@@H](C1CC1)C(F)(F)CO2 (single isomer, unassigned)", 11],
  ["C[C@@H]1CN(c2ncc(Cl)c(Nc3ccc4c(c3)n(CCC(C)(C)O)c(=O)n4C)n2)C[C@H](C)C1(F)F", 11],
  ["Cn1c(=O)c2c(c3cc(Nc4nc(N5CCC(F)(F)[C@H](O)C5)ncc4Cl)ccc31)N[C@@H](C1CC1)C(F)(F)CO2 (single isomer, unassigned)", 13],
  ["C[C@@H]1CCCN(c2ncc(Cl)c(Nc3ccc4c(c3)c3c(c(=O)n4C)OCC(F)(F)[C@H](C4CC4)N3)n2)C1 [15b]", 0],
  ["Cn1c(=O)n(CCC(C)(C)O)c2cc(Nc3nc(N4CCC(F)(F)C(CO)C4)ncc3Cl)ccc21 (centres unmarked)", 294],
  ["CC(=O)N[C@H]1C[C@@H](C)CN(c2ncc(Cl)c(Nc3ccc4c(c3)c3c(c(=O)n4C)OCC(F)(F)[C@H](C4CC4)N3)n2)C1 [10b]", 15],
  ["Cn1c(=O)c2c(c3cc(Nc4nc(N5CCC[C@H](O)C5)ncc4Cl)ccc31)N[C@@H](C1CC1)C(F)(F)CO2 [14b]", 23],
  ["C[C@@H]1C[C@H](N(C)C)CN(c2ncc(Cl)c(Nc3ccc4c(c3)c3c(c(=O)n4C)OCC(F)(F)[C@H](C4CC4)N3)n2)C1 [11b]", 58],
  ["Cn1c(=O)n(CCC(C)(C)O)c2cc(Nc3nc(N4CCC(F)(F)C(O)C4)ncc3Cl)ccc21 (centres unmarked)", 11],
  ["Cn1c(=O)c2c(c3cc(Nc4nc(N5CCC[C@@H](O)C5)ncc4Cl)ccc31)N[C@@H](C1CC1)C(F)(F)CO2 [14a]", 25],
  ["Cn1c(=O)c2c(c3cc(Nc4nc(N5CCC(F)(F)[C@H](CO)C5)ncc4Cl)ccc31)N[C@@H](C1CC1)C(F)(F)CO2", 6.8],
  ["C[C@H]1C[C@@H](N(C)C)CN(c2ncc(Cl)c(Nc3ccc4c(c3)c3c(c(=O)n4C)OCC(F)(F)[C@H](C4CC4)N3)n2)C1 [11a]", 60]
]}

----------
assay-explanation: Microsomal clearance assay (HLM)
Format: in vitro ADME
condition: both sexes, pH 7.4; human liver microsomes, 1 μM compound
Listed here are compounds together with their documented microsomal CLint at 1 μM.
measured-metric: microsomal CLint at 1 μM (µL/min/mg)

{"columns": ["compound", "observed-result"],
 "data": [
  ["C[C@H]1C[C@@H](O)CN(c2ncc(Cl)c(Nc3ccc4c(c3)n(CCC(C)(C)O)c(=O)n4C)n2)C1 (relative stereo)", 28],
  ["C[C@@H]1C[C@H](O)CN(c2ncc(Cl)c(Nc3ccc4c(c3)c3c(c(=O)n4C)OCC(F)(F)[C@H](C4CC4)N3)n2)C1 [12b CCT373567]", 3]
]}

----------
assay-explanation: In vivo pharmacokinetic study in Balb/C mice
Set-up: species or system mouse
condition: mouse, in vivo; female Balb/C mice, 1 mg/kg i.v. and 5 mg/kg p.o.

{"columns": ["compound", "Cmax, nM"],
 "data": [
  ["C[C@@H]1CN(c2ncc(Cl)c(Nc3ccc4c(c3)n(CCC(C)(C)O)c(=O)n4C)n2)C[C@H](C)C1(F)F", 1580],
  ["C[C@H]1C[C@@H](O)CN(c2ncc(Cl)c(Nc3ccc4c(c3)c3c(c(=O)n4C)OCC(F)(F)[C@H](C4CC4)N3)n2)C1 [12a CCT373566]", 3950]
]}

----------
Listed here are molecules together with their documented DC50.
system-name: endogenous BCL6 in OCI-Ly1 cells (Homo sapiens, UniProt P41182)
assay-explanation: cell-based
condition: read-out: MSD degrader assay [OCI-Ly1] DC50; geometric mean; OCI-Ly1 cells, 2 h incubation

{"columns": ["molecule", "relation-operator", "DC50 (nM)"],
 "data": [
  ["Cn1c(=O)n(CCC(C)(C)O)c2cc(Nc3nc(N4CCC(F)(F)C(O)C4)ncc3Cl)ccc21 (stereo not shown)", "=", 276],
  ["Cn1c(=O)c2c(c3cc(Nc4nc(N5CCC[C@@H](O)C5)ncc4Cl)ccc31)N[C@@H](C1CC1)C(F)(F)CO2 [14a]", ">", 2000],
  ["Cn1c(=O)c2c(c3cc(Nc4nc(N5CCC(F)(F)[C@H](CO)C5)ncc4Cl)ccc31)N[C@@H](C1CC1)C(F)(F)CO2", ">", 2000],
  ["CC(=O)N[C@@H]1C[C@H](C)CN(c2ncc(Cl)c(Nc3ccc4c(c3)c3c(c(=O)n4C)OCC(F)(F)[C@H](C4CC4)N3)n2)C1 [10a]", "=", 2.2]
]}

----------
system-name: ADRB2 (Homo sapiens)
Sequence (P07550 whole entry): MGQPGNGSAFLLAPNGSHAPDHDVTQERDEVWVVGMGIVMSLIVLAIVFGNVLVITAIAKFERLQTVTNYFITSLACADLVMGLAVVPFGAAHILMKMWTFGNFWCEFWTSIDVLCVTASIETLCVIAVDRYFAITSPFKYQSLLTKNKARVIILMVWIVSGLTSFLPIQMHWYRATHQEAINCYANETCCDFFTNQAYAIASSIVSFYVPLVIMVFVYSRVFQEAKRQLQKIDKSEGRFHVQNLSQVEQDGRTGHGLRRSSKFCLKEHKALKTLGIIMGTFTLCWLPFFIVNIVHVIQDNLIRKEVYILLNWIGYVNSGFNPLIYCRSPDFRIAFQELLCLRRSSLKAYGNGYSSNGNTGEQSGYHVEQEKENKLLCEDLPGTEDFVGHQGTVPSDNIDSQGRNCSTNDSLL
assay-explanation: SAFETYScan GPCR cAMP, Antagonist
condition: read-out: RC50 (IC50)

{"columns": ["compound", "IC50"],
 "data": [
  ["C[C@H]1C[C@@H](O)CN(c2ncc(Cl)c(Nc3ccc4c(c3)c3c(c(=O)n4C)OCC(F)(F)[C@H](C4CC4)N3)n2)C1 [12a CCT373566]", "1740 nM"]
]}

----------
system-name: HRH2 (Homo sapiens)
Sequence (P25021 whole entry): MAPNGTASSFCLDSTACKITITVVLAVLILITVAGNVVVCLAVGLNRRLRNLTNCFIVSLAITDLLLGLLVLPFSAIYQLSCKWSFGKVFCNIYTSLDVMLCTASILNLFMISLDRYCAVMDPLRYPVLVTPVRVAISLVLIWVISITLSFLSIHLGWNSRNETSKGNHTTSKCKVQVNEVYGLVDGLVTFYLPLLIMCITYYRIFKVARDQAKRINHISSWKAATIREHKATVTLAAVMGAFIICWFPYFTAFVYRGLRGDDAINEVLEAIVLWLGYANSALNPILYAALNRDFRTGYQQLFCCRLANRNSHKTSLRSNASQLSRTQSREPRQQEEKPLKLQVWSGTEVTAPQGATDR
assay-explanation: SAFETYScan GPCR cAMP, Agonist
condition: read-out: RC50 (EC50)
measured-metric: EC50

{"columns": ["compound", "system-name", "observed-result"],
 "data": [
  ["C[C@H]1C[C@@H](O)CN(c2ncc(Cl)c(Nc3ccc4c(c3)c3c(c(=O)n4C)OCC(F)(F)[C@H](C4CC4)N3)n2)C1 [12a CCT373566]", "HRH2 (Homo sapiens)", "> 10 µM"]
]}

----------
system-name: UniProt P08913
Sequence (P08913 whole entry): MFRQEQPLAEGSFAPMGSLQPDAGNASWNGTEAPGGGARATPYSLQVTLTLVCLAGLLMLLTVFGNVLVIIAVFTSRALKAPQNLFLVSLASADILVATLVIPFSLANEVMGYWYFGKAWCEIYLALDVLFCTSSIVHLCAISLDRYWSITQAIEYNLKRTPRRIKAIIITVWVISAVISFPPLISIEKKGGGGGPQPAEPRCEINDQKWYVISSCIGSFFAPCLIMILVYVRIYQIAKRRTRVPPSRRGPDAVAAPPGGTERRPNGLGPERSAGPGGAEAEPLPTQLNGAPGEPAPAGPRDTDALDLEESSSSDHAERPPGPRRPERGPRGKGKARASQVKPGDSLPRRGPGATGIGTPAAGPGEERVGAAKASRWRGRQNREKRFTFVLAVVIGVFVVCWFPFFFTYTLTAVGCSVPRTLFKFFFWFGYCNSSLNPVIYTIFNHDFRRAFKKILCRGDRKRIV
assay-explanation: SAFETYScan GPCR cAMP, Antagonist
condition: read-out: RC50 (IC50)
pIC50: −log10 of the molar value.

{"columns": ["compound", "pIC50"],
 "data": [
  ["C[C@H]1C[C@@H](O)CN(c2ncc(Cl)c(Nc3ccc4c(c3)c3c(c(=O)n4C)OCC(F)(F)[C@H](C4CC4)N3)n2)C1 [12a CCT373566]", "< 5.00"]
]}

----------
system-name: UniProt:P32238
Sequence (P32238 1-428): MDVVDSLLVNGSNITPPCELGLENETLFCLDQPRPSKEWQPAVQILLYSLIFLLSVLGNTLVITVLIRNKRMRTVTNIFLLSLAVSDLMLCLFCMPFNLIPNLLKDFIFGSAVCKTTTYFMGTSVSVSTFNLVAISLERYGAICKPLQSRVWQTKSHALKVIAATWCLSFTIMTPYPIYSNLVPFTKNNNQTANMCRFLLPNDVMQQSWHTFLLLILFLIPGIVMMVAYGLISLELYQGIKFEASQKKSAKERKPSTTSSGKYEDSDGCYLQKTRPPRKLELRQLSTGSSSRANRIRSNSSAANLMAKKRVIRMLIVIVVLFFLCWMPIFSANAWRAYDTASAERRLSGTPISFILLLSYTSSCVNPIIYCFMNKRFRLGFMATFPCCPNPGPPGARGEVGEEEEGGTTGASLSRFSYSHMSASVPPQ
assay-explanation: SAFETYScan GPCR Calcium Flux, Agonist
condition: read-out: RC50 (EC50)
pEC50: −log10 of the molar value.
measured-metric: pEC50

{"columns": ["compound", "observed-result"],
 "data": [
  ["C[C@H]1C[C@@H](O)CN(c2ncc(Cl)c(Nc3ccc4c(c3)c3c(c(=O)n4C)OCC(F)(F)[C@H](C4CC4)N3)n2)C1 [12a CCT373566]", "< 5.00"]
]}
